- Tested Target: furin, P09958;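 also: purified furin at 1:10 enzyme:substrate in 50 mM HEPES pH 7.5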
- Sequence (P09958 whole entry): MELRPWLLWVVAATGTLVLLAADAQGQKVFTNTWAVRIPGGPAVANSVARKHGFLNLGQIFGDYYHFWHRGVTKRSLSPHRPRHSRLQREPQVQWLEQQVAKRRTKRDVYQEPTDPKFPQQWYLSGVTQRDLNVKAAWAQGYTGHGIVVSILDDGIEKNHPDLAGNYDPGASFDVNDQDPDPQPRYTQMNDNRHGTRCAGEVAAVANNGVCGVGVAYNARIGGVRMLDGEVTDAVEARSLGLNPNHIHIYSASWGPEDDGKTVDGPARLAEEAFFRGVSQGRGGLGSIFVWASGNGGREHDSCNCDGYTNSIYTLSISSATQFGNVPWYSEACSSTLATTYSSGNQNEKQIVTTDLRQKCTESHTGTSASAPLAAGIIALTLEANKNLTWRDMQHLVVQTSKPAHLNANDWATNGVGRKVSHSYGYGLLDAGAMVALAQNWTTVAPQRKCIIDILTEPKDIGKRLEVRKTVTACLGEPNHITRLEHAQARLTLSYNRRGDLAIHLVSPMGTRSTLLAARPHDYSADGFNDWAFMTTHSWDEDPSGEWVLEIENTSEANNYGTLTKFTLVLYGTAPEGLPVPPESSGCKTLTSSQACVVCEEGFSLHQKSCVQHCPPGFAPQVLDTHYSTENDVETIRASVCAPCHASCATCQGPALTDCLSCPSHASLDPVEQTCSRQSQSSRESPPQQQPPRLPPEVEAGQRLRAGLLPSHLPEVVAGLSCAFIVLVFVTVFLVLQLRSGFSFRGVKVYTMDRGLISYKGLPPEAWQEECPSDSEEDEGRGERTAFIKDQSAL
- Experiment Summary: furin cleavage Z-score vs untreated control; higher = more cleavage, active = 3.5 or more, inactive = 1 or less, 8 variable residues between constant flanks
- Conditions: 30 min
Some of the results follow. No count for the full screen is at hand.
Response enum: t (active), f (inactive)

Before answering, review these 10 worked examples.
{"Item Sequence": "CARYKRAGESAGNASASA [FS-2472]", "Cat": "t"}
{"Item Sequence": "CARERRDVQRAGNASASA [FS-1696]", "Cat": "t"}
{"Item Sequence": "CATQPCSGSWAGNASASA [HC1862]", "Cat": "f"}
{"Item Sequence": "CAEVVTSTYVAGNASASA [HC2229]", "Cat": "f"}
{"Item Sequence": "CAFCTTPCSGAGNASASA [HC1947]", "Cat": "f"}
{"Item Sequence": "CAVAKAVDFIAGNASASA [HC755]", "Cat": "f"}
{"Item Sequence": "CAASAYQVRNAGNASASA [HC255]", "Cat": "f"}
{"Item Sequence": "CARERRGPATAGNASASA [FS-2487]", "Cat": "f"}
{"Item Sequence": "CARERRDLFTAGNASASA [FS-2659]", "Cat": "t"}
{"Item Sequence": "CAGHYVQMVIAGNASASA [HC626]", "Cat": "f"}

What did the test return for CAVLVLNPSVAGNASASA [HC786] ?
f

Then CALLAPITAYAGNASASA [HC673] ?
f

Another sequence to check: CAGIVPAKSVAGNASASA [HC408]
f

Ref: the supplement of paper PMC3545927
